Numbers sourced from paper PMC7026480.

test system: A/HebeiXinhua/SWL1106/2017 (oseltamivir- and amantadine-resistant H1N1); experiment: microbe, parasite or virus in culture; format: cell-based, influenza A virus; conditions: Influenza A virus, H1N1, MDCK, read-out: IC50, CPE reduction, A/HebeiXinhua/SWL1106/2017, Pre-incubation of virus and drug
Measured IC50, listed per entry.
measurement_label: IC50 (µM)

compound: O=c1cc(-c2ccc(O)cc2)oc2cc(O)cc(O)c12
lt_gt_eq: =
obs_value: 31.6
//
compound: CCOC(=O)C1=C[C@@H](OC(CC)CC)[C@H](NC(C)=O)[C@@H](N)C1 [Oseltamivir, oseltamivir phosphate, reference compound]
lt_gt_eq: >
obs_value: 100
//
compound: NC(=O)c1ncn([C@@H]2O[C@H](CO)[C@@H](O)[C@H]2O)n1 [Ribavirin, ribavirin, reference compound]
lt_gt_eq: =
obs_value: 29.8
//
compound: O=c1cc(-c2ccc(O)c(O)c2)oc2cc(O)cc(O)c12
lt_gt_eq: =
obs_value: 15.2
//
compound: O=c1c(O)c(-c2ccc(O)c(O)c2)oc2cc(O)cc(O)c12
lt_gt_eq: =
obs_value: 6.93

* * *

tested on: A/FujianXinluo/SWL2457/2014 (amantadine-resistant H1N1); assay: microbe, parasite or virus in culture; assay type: cell-based; details: Influenza A virus, H1N1, MDCK, read-out: IC50, CPE reduction, A/FujianXinluo/SWL2457/2014, Simultaneous action of virus and drug
Decision: IC50 beneath 30 µM gives TRUE; IC50 meeting or exceeding 30 µM gives FALSE.

compound: CCOC(=O)C1=C[C@@H](OC(CC)CC)[C@H](NC(C)=O)[C@@H](N)C1 [Oseltamivir, oseltamivir phosphate, reference compound]
cat: TRUE
//
compound: O=c1cc(-c2ccc(O)c(O)c2)oc2cc(O)cc(O)c12 [Luteolin]
cat: TRUE
//
compound: NC(=O)c1ncn([C@@H]2O[C@H](CO)[C@@H](O)[C@H]2O)n1 [Ribavirin, ribavirin, reference compound]
cat: TRUE
//
compound: O=c1c(O)c(-c2ccc(O)c(O)c2)oc2cc(O)cc(O)c12 [Quercetin]
cat: FALSE
//
compound: O=c1cc(-c2ccc(O)cc2)oc2cc(O)cc(O)c12 [Apigenin]
cat: FALSE

* * *

system: A/FujianXinluo/SWL2457/2014 (amantadine-resistant H1N1); assay: microbe, parasite or virus in culture; assay type: cell-based; conditions: Influenza A virus, H1N1, MDCK, read-out: IC50, CPE reduction, A/FujianXinluo/SWL2457/2014, Drug administration after virus inoculation

molecule: NC(=O)c1ncn([C@@H]2O[C@H](CO)[C@@H](O)[C@H]2O)n1 [Ribavirin, ribavirin, reference compound]
scale_unit: µM
IC50: 25.9
//
molecule: O=c1cc(-c2ccc(O)cc2)oc2cc(O)cc(O)c12
scale_unit: µM
IC50: 28.1
//
molecule: O=c1c(O)c(-c2ccc(O)c(O)c2)oc2cc(O)cc(O)c12
scale_unit: µM
IC50: 20.7
//
molecule: CCOC(=O)C1=C[C@@H](OC(CC)CC)[C@H](NC(C)=O)[C@@H](N)C1 [Oseltamivir, oseltamivir phosphate, reference compound]
scale_unit: µM
IC50: 86.9
//
molecule: O=c1cc(-c2ccc(O)c(O)c2)oc2cc(O)cc(O)c12
scale_unit: µM
IC50: 31.9
